assay.text: antimalarial activity against Dd2 strain (AID 2302)
condition.summary: P. falciparum Dd2 in RBCs, LDH growth readout, 72 h; at 2 µM
Active and inactive are the calls of the source.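 Rule for the calls: active = growth inhibition above 50% at the single 2 µM test dose, taken to imply half-maximal potency below 2 µM; inactive = the rest.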
Labels: active, inactive

[[record]]
molecule = "O=C(Cc1ccc(NC(=O)c2ccc(O)c(-c3ccc(Cl)c(Cl)c3)c2)cc1)NCc1cccc(C(F)(F)F)c1"
assigned_category = "inactive"

[[record]]
molecule = "Oc1ccc(C2CNCCc3c2cc(O)c(OCc2ccccc2)c3Cl)cc1 (stereo not given)"
assigned_category = "inactive"

[[record]]
molecule = "C=Cc1c(C2CCN(CCCCNC(=O)c3ccc(-c4ccc(C#N)cc4)cc3)CC2)ccc2c1CCCC2"
assigned_category = "active"

[[record]]
molecule = "CCCCOc1ccc(/C=C/c2ccc(-c3c(C)[nH]c(C)c(Cl)c3=O)s2)cc1"
assigned_category = "active"

[[record]]
molecule = "CCc1cn2c3c(cc(C(=O)N[C@@H](Cc4ccccc4)[C@H](O)CNC4CCCC4)cc13)N(C)S(=O)(=O)CC2"
assigned_category = "active"

